Assay: NCI Yeast Anticancer Drug Screen. Data for the bub3 strain (AID 167)
Conditions: S. cerevisiae bub3 mutant strain, at 50.0 µM
The panel holds about 79,000 compounds, 15% with a hit somewhere; the sample as a whole holds those more often. Calls of active or inactive are those of the source. Rule as the data show it: active = growth inhibition above about 70%; inactive = the rest.
# valid calls are active, inactive; nothing else

Query: Identify the outcome logged in this assay for the compound shown: CCc1c(N)nc(=O)[nH]c1C(=O)O
Response: inactive

Query: Identify the outcome logged in this assay for the compound shown: O=S1(=O)C2C=CCC1C(Cl)CC2 (stereo not drawn)
Response: inactive

Query: Identify the outcome logged in this assay for the compound shown: Cc1ccc(Cl)cc1NC(=O)C(C)Oc1ccccc1 (stereo not drawn)
Response: inactive

Query: Identify the outcome logged in this assay for the compound shown: CCN(CC)C(=O)N1C=CC(C)C=C1
Response: inactive

Query: Identify the outcome logged in this assay for the compound shown: COc1cc(C(=O)c2cocc2C(=O)c2ccc3c(c2)OCO3)cc(OC)c1OC
Response: inactive

Query: Identify the outcome logged in this assay for the compound shown: c1ccc2c(c1)c1ccccc1n2Cn1c2ccccc2c2ccccc21
Response: inactive

Query: Identify the outcome logged in this assay for the compound shown: CCC[CH2][Sn]([CH2]CCC)([O]C(=O)c1ccc(OC)c(OC)c1OC)[O][Sn]([CH2]CCC)([CH2]CCC)[O]C(=O)c1ccc(OC)c(OC)c1OC
Response: active

Query: Identify the outcome logged in this assay for the compound shown: CC1COC2(CCCCC2)O1 (stereo not drawn)
Response: inactive

Query: Identify the outcome logged in this assay for the compound shown: NC(=O)N/N=C/c1ccc(O)cc1
Response: inactive

Query: Identify the outcome logged in this assay for the compound shown: OCc1ccncc1
Response: inactive

Query: Identify the outcome logged in this assay for the compound shown: CC1=C(/C=C/C(C)=C\c2cc(C)cc(=O)o2)C(C)(C)CCC1
Response: inactive

Query: Identify the outcome logged in this assay for the compound shown: Nc1nc(O)cc(=O)[nH]1
Response: inactive

Query: Identify the outcome logged in this assay for the compound shown: CN(c1ccccc1)c1ccc([N+](=O)[O-])cc1[N+](=O)[O-]
Response: inactive

Query: Identify the outcome logged in this assay for the compound shown: CCOC(=O)/C(=C\c1cc(C)c(OC(C)=O)c(OC)c1)NC(=O)c1ccccc1
Response: inactive

Query: Identify the outcome logged in this assay for the compound shown: CCOC1C[C@H]2C[C@H]3[C@@H]4CC=C5C[C@@H](OC(C)=O)CC[C@]5(C)[C@H]4CC[C@]3(C)C2=C(C)O1 (stereo partly drawn)
Response: inactive

Query: Identify the outcome logged in this assay for the compound shown: Cc1ccsc1S(N)(=O)=O
Response: inactive

Query: Identify the outcome logged in this assay for the compound shown: CN1CCS(=O)(=O)NC(Cc2ccccc2)C(=O)N2CCCC2C1=O (stereo not drawn)
Response: inactive

Query: Identify the outcome logged in this assay for the compound shown: CC12CC3CC(C)(C1)CC(N=[N+]=[N-])(C3)C2
Response: inactive

----------
Consider the following compounds; for each one, report its growth inhibition.
Assay: NCI Yeast Anticancer Drug Screen. Data for the cln2 rad14 strain (AID 165);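 also: 0% = growth equal to vehicle treated cultures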
Details: S. cerevisiae cln2 rad14 strain, at 50.0 µM, stronger effect = higher value
About 79,000 compounds went through this panel and 15% of them were active in at least one assay; those are over-represented in the sample as a whole.
Answer with a number only, understood to be in %.

growth inhibition recorded for this compound, CC(=O)Nc1ccc2c(c1)Cc1cc(Cl)c(Cl)cc1-2 , is -17.1

growth inhibition recorded for this compound, COC(=S)OC1CC(n2cnc3c(N)ncnc32)OC1CO[Si](C)(C)C(C)(C)C (stereo not drawn) , is -1.2

growth inhibition recorded for this compound, CCOC(=O)CCOc1ccccc1 , is 3.8

growth inhibition recorded for this compound, CSc1cc(Cl)c(C)cc1S(=O)(=O)NC(=O)NNc1cccc(C(F)(F)F)n1 , is -5.4

growth inhibition recorded for this compound, CC(=O)N(C(C)=O)n1c(Cc2ccc(Cl)cc2)nn(C(C)=O)c1=O , is 4.5

growth inhibition recorded for this compound, Cc1nc(C)c(N2CCN(S(N)(=O)=O)CC2)c(=O)[nH]1 , is 6.6

growth inhibition recorded for this compound, O=C(Cc1nc2ccccc2o1)C(=O)Nc1ccc(Cl)cc1Cl , is 17.1

growth inhibition recorded for this compound, CN1CC(O)C(C(=O)NC23CC4CC(CC(C4)C2)C3)C1 (stereo not drawn) , is 14.1

growth inhibition recorded for this compound, Clc1nc(-c2ccccc2)nc2ccccc12 , is -29.6

growth inhibition recorded for this compound, CC(=O)OCSc1ncnc2c1ncn2CN1CCOCC1 , is 1.8

growth inhibition recorded for this compound, NCCCCCCNCc1cccc2ccccc12 , is 6.05

growth inhibition recorded for this compound, CC(C)CCCC(C)C1CCC2C3CC([N+](=O)[O-])=C4CC(O[N+](=O)[O-])CCC4(C)C3CCC12C (stereo not drawn) , is 23.6

growth inhibition recorded for this compound, CCCCCCCCCCCCCOCC(=O)OC , is -29

growth inhibition recorded for this compound, O=C(O)c1cc2cc(O)ccc2[nH]1 , is 3

growth inhibition recorded for this compound, Cc1ccc(C#N)c2c1CCC2 , is -50

growth inhibition recorded for this compound, C=CC(C)Cc1ccccc1 (stereo not drawn) , is 24.1

growth inhibition recorded for this compound, CC(=O)Oc1cccc2c1ccc1nonc12 , is -49.8

growth inhibition recorded for this compound, NCC(=O)N1CCCCC1 , is -8.15

----------
Experiment: NCI Yeast Anticancer Drug Screen. Data for the rad50 strain (AID 155);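 also: 0% = growth of vehicle-only cultures of the same strain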
Settings: S. cerevisiae rad50 strain growth inhibition; at 50.0 µM; stronger effect = higher value
About 79,000 compounds went through this panel and 15% of them were active in at least one assay; those are over-represented in the sample as a whole.
Consider the following molecules; for each one, report its growth inhibition.
Answer with a number only, understood to be in %.

growth inhibition recorded for this molecule, CCOC(=O)CS(=O)(=O)C1CCCCC1c1cc(OC)c(OC)c(OC)c1 (configuration not stated) , is 3.25

growth inhibition recorded for this molecule, CC(=O)Oc1cc2c(c3ccccc13)CCC2=O , is 13.4

growth inhibition recorded for this molecule, C1=C(c2ccccc2)Cc2ccccc21 , is 13.4

growth inhibition recorded for this molecule, CCCC(=O)C(=O)CCC , is -5.25

growth inhibition recorded for this molecule, CC(=O)N1CN2C(=O)CCC2c2cc(C)ccc21 (configuration not stated) , is 10.1

growth inhibition recorded for this molecule, CCOC(=O)C1=CNC(C(=O)OCC)C1c1cccn1-c1ccc(Cl)cc1[N+](=O)[O-] (configuration not stated) , is 8.6

growth inhibition recorded for this molecule, O=C(CCc1ccccc1Cl)CC(=O)CC(O)(c1ccccc1)c1ccccc1 , is 68

growth inhibition recorded for this molecule, N#Cc1ccc(-n2cccc2)cc1 , is -1.8

growth inhibition recorded for this molecule, COC(=O)C1C(=O)CC2CCCCC21 (configuration not stated) , is 2.75

growth inhibition recorded for this molecule, Cn1c(=O)c2c(ncn2CCCCn2ccnc2[N+](=O)[O-])n(C)c1=O , is -30.1

growth inhibition recorded for this molecule, COc1cc([N+](=O)[O-])c(OC)cc1N , is 2.45

growth inhibition recorded for this molecule, O=C1OC[C@H]2[C@@H]1[C@H]1O[C@@H]2C2=C(CCC2)C1=O , is -27.4

growth inhibition recorded for this molecule, CCC(C)OC(=S)S.[Cu+2] (configuration not stated) , is -23.6

growth inhibition recorded for this molecule, O=[N+]([O-])c1cc(Br)ccc1P(=O)(O)O , is 9.25

growth inhibition recorded for this molecule, O=C1CCCCCCN1 , is 8.9

growth inhibition recorded for this molecule, CCOC(=O)Cc1cc(Cl)c2ccc(Cl)cc2n1 , is 32.1

growth inhibition recorded for this molecule, CC1(C)NN=C([N+](=O)[O-])C1c1ccccc1 (configuration not stated) , is 5.95

growth inhibition recorded for this molecule, COC1NC(=O)Oc2ccccc21 (configuration not stated) , is -6.25

growth inhibition recorded for this molecule, CCc1ccccc1NC(=O)C1=C(C)NC(C)=C(C(=O)Nc2ccccc2CC)C1c1ccc2c(c1)OCO2 , is -9.35

growth inhibition recorded for this molecule, N#Cc1cccc(Nc2ccccc2SSc2ccccc2Nc2cccc(C#N)c2)c1 , is 13.1

growth inhibition recorded for this molecule, CC(=O)N[C@]1(C)CCC2C[C@H]1C(C)=NC2(C)C , is -5.55

growth inhibition recorded for this molecule, O=c1[nH]cc(COCC(F)(F)C(F)(F)C(F)(F)C(F)F)c(=O)[nH]1 , is -1.35

growth inhibition recorded for this molecule, CC(=O)c1ccc(OC(=O)Nc2ccc(C)cc2)cc1 , is -2.25

growth inhibition recorded for this molecule, O=C(NC(C(=O)O)c1ccccc1)c1ccc([N+](=O)[O-])cc1 (configuration not stated) , is 8.2

growth inhibition recorded for this molecule, CN1CNc2nc(N)n(C)c(=O)c2C1 , is 11.2

growth inhibition recorded for this molecule, CC(=O)Nc1ccc(S(=O)(=O)O)c(C(F)(F)F)c1 , is 17.1

growth inhibition recorded for this molecule, Cc1ncc2c(=O)c3c(oc2n1)c1ccccc1n3Cc1ccccc1 , is 8.75
